# protocol.description: Plasma level of ciclesonide and C21-C21-desisobutyrylciclesonide (HPLC-MS/MS), 2nd ciclesonide study
# protocol.conditions: horse, plasma, inhaled, 2700 μg/horse, Ciclesonide concentration (plasma), ciclesonide 2700 μg B (nozzle B) twice daily per inhalation; day 1; 4 h
property.label: concentration at 4 h

What value of concentration at 4 h has been reported for the following compound? CC(C)C(=O)OCC(=O)[C@@]12O[C@H](C3CCCCC3)O[C@@H]1C[C@H]1[C@@H]3CCC4=CC(=O)C=C[C@]4(C)[C@H]3[C@@H](O)C[C@@]12C [ciclesonide]
< 0.5 nM

====

# protocol.description: Plasma level of ciclesonide and C21-C21-desisobutyrylciclesonide (HPLC-MS/MS), 2nd ciclesonide study
# protocol.conditions: horse, plasma, inhaled, 2700 μg/horse, Ciclesonide concentration (plasma), ciclesonide 2700 μg A (nozzle A) twice daily per inhalation; day 1; 30 min
property.label: concentration at 30 min (nM)
Write it as a number; the unit nM goes unstated.

What value of concentration at 30 min has been reported for the following compound? CC(C)C(=O)OCC(=O)[C@@]12O[C@H](C3CCCCC3)O[C@@H]1C[C@H]1[C@@H]3CCC4=CC(=O)C=C[C@]4(C)[C@H]3[C@@H](O)C[C@@]12C [ciclesonide]
0.51

====

# protocol.description: Plasma level of ciclesonide and C21-C21-desisobutyrylciclesonide (HPLC-MS/MS), 2nd ciclesonide study
# protocol.conditions: horse, plasma, inhaled, 2700 μg/horse, Ciclesonide concentration (plasma), ciclesonide 2700 μg A (nozzle A) twice daily per inhalation; day 1; 1 h
property.label: concentration at 1 h

What value of concentration at 1 h has been reported for the following compound? CC(C)C(=O)OCC(=O)[C@@]12O[C@H](C3CCCCC3)O[C@@H]1C[C@H]1[C@@H]3CCC4=CC(=O)C=C[C@]4(C)[C@H]3[C@@H](O)C[C@@]12C [ciclesonide]
< 0.5 nM

====

# protocol.description: Plasma level of ciclesonide and C21-C21-desisobutyrylciclesonide (HPLC-MS/MS), 2nd ciclesonide study
# protocol.conditions: horse, plasma, inhaled, 2700 μg/horse, Ciclesonide concentration (plasma), ciclesonide 2700 μg B (nozzle B) twice daily per inhalation; day 1; 2 h
property.label: concentration at 2 h

What value of concentration at 2 h has been reported for the following compound? CC(C)C(=O)OCC(=O)[C@@]12O[C@H](C3CCCCC3)O[C@@H]1C[C@H]1[C@@H]3CCC4=CC(=O)C=C[C@]4(C)[C@H]3[C@@H](O)C[C@@]12C [ciclesonide]
< 0.5 nM

====

# protocol.description: Plasma level of ciclesonide and C21-C21-desisobutyrylciclesonide (HPLC-MS/MS), 2nd ciclesonide study
# protocol.conditions: horse, plasma, inhaled, 2700 μg/horse, Ciclesonide concentration (plasma), ciclesonide 2700 μg A (nozzle A) twice daily per inhalation; day 1; 0 min
property.label: concentration at 0 min

What value of concentration at 0 min has been reported for the following compound? CC(C)C(=O)OCC(=O)[C@@]12O[C@H](C3CCCCC3)O[C@@H]1C[C@H]1[C@@H]3CCC4=CC(=O)C=C[C@]4(C)[C@H]3[C@@H](O)C[C@@]12C [ciclesonide]
< 0.5 nM

====

# protocol.description: Plasma level of ciclesonide and C21-C21-desisobutyrylciclesonide (HPLC-MS/MS), 2nd ciclesonide study
# protocol.conditions: horse, plasma, inhaled, concentration of ciclesonide in plasma, samples taken 1 h after drug administration; below lower limit of quantification
property.label: concentration at 1 h

What value of concentration at 1 h has been reported for the following molecule? CC(C)C(=O)OCC(=O)[C@@]12O[C@H](C3CCCCC3)O[C@@H]1C[C@H]1[C@@H]3CCC4=CC(=O)C=C[C@]4(C)[C@H]3[C@@H](O)C[C@@]12C [ciclesonide]
< 0.5 nM

Just for reference, patent US10258634B2 is where these values come from.
